// DU 145 cells GI50 records
Metric name: GI50 (nM)

{"Compound": "COC(=O)C(Cc1c[nH]c2cc(F)ccc12)NC(=O)C(OC)C1Cc2cc3cc(OC4CC(OC5CC(O)C(O)C(C)O5)C(O)C(C)O4)c(C)c(O)c3c(O)c2C(=O)C1OC1CC(OC2CC(OC3CC(C)(O)C(O)C(C)O3)C(O)C(C)O2)C(O)C(C)O1 (centres unmarked)", "Numeric value": 157}
{"Compound": "COC(=O)C(Cc1ccccc1)NC(=O)C(Cc1c[nH]c2ccccc12)NC(=O)C(OC)C1Cc2cc3cc(OC4CC(OC5CC(O)C(O)C(C)O5)C(O)C(C)O4)c(C)c(O)c3c(O)c2C(=O)C1OC1CC(OC2CC(OC3CC(C)(O)C(O)C(C)O3)C(O)C(C)O2)C(O)C(C)O1 (centres unmarked)", "Numeric value": 67}

---

// log10 of GI50 lookup, one value per entry
system: PC-3 (prostate cancer, no ETS translocation) cell line; assay: 72 h growth inhibition (GI50) assay in PC-3; conditions: read-out: PC-3 Prostate cancer No ETS Translocation GI50; 72 h growth inhibition, PC-3 cells
Metric name: log10 of GI50 (log10 of the value in nM)

{"Compound": "COC(=O)C(Cc1ccccc1)NC(=O)C(Cc1c[nH]c2ccccc12)NC(=O)C(OC)C1Cc2cc3cc(OC4CC(OC5CC(O)C(O)C(C)O5)C(O)C(C)O4)c(C)c(O)c3c(O)c2C(=O)C1OC1CC(OC2CC(OC3CC(C)(O)C(O)C(C)O3)C(O)C(C)O2)C(O)C(C)O1 (stereo not shown)", "log10 of GI50": 1.88}
{"Compound": "COC(=O)C(Cc1c[nH]c2cc(F)ccc12)NC(=O)C(OC)C1Cc2cc3cc(OC4CC(OC5CC(O)C(O)C(C)O5)C(O)C(C)O4)c(C)c(O)c3c(O)c2C(=O)C1OC1CC(OC2CC(OC3CC(C)(O)C(O)C(C)O3)C(O)C(C)O2)C(O)C(C)O1 (stereo not shown)", "log10 of GI50": 2.27}
{"Compound": "COC(=O)C(Cc1c[nH]c2ccccc12)NC(=O)C(Cc1ccccc1)NC(=O)C(OC)C1Cc2cc3cc(OC4CC(OC5CC(O)C(O)C(C)O5)C(O)C(C)O4)c(C)c(O)c3c(O)c2C(=O)C1OC1CC(OC2CC(OC3CC(C)(O)C(O)C(C)O3)C(O)C(C)O2)C(O)C(C)O1 (stereo not shown)", "log10 of GI50": 3.05}
{"Compound": "C=CCOc1ccc2[nH]cc(CC(NC(=O)C(OC)C3Cc4cc5cc(OC6CC(OC7CC(O)C(O)C(C)O7)C(O)C(C)O6)c(C)c(O)c5c(O)c4C(=O)C3OC3CC(OC4CC(OC5CC(C)(O)C(O)C(C)O5)C(O)C(C)O4)C(O)C(C)O3)C(=O)OC)c2c1 (stereo not shown)", "log10 of GI50": 2.66}
{"Compound": "COC(=O)C(Cc1cn(C)c2ccccc12)NC(=O)C(OC)C1Cc2cc3cc(OC4CC(OC5CC(O)C(O)C(C)O5)C(O)C(C)O4)c(C)c(O)c3c(O)c2C(=O)C1OC1CC(OC2CC(OC3CC(C)(O)C(O)C(C)O3)C(O)C(C)O2)C(O)C(C)O1 (stereo not shown)", "log10 of GI50": 3.19}
